Data origin: the supplement of paper PMC9170038

I'd be grateful if you could share measured apparent KD of K4 kissing-loop reporter for these entries.
test system: K4 kissing-loop RNA reporter; assay: apparent KD of K4 kissing-loop reporter; higher = weaker reporter binding; conditions: Eterna round: R107; input ligand: none;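 further: bound reporter read as fluorescence of individual clusters on recovered sequencing chips by microscopy, with normalized cluster intensities fitted with a binding model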
One number for each entry, in nM.

AUAUUUAUUUAGUCACUUUUAAUAUUAUGUCAGGAUAUCGUAAUUUCGAGAAGGGACUCAUGCUAGUGAUGUUAGCUAAUUCUCA [JR_Nu3_ExcFMNA_Sub023]: 135
AAGUAGCUCUCGGCCGCCACUCCUCAGUGAUGUUGAGAUAUUAACUGCCAAUUGGCGUAUUUAAAGAGGACCGGGAGAGCUACAA [AK2 SS Tryptophan B]: 476
UAUUAAUUGUCAGGAUAUCGAAAUCGAGUGAUGUUCGUAUAUCGACGAUAGUCGAUAUUAUUUAUACGAGAAGGGACAUUAUUUA [JR_SSFMNB_Sub003]: 615
UUUGGAGUGGGAGGAUAUCCUAAUAUGGGUGAUGUUAGCGAUGUUGAAGGUGUAGUGAUGUUAUGCGGAGAAGGCCCAGUGUAGA [BDazzled - #18 - Exc. FMN B]: 245
AGCUAGUACGCAGGAUAUCGAACAUCAUUUAGUGAGAUCGAGUGAUGUUCGAUCACGUCUUCAGUUCGAGAAGGGCGUACUAGCA [#01 K4 FMN B Same State]: 1090
CACCUAGGUACGGCCGCCACUAGAAGUGAUGUUUCGUCUGGUUCCGCAUUACGUGUACUUUCUUAUAGGACCGGGUAGCAAAUAG [theeternabot_exclusion_KL_Trp_B_3]: 563
UGAUACCAGACGGCCGCCACUAGGACCGGGAGUGAUGUUCCCAAUUUAAAAUGCUCGGCCGCCACUAGGACCGGGUCUGGUAUCU [TrypBX 27 #DoubleAptamer #SwitchBubble]: 198
AGUGGACAUGUCUAGAGUGAUGUUCUGGAUACCAGACACGAAAGUGUCCCUUGGCAGCCGGAGUGAUGUUCUGGCGUUCACUAAA [Omei KL Theo A Exc B v7]: 405

Please supply apparent KD of K4 kissing-loop reporter for each of the following items, keeping them in order.
1. GCCGUAGAUGGAAGGAGCGUGAAUGGCCUCUAUCCAAAGUGAUGUUUUGUUGAAGACUGUUCACAGGUAGGUCGCCAUCUACGGC
2. GCCGUACGCACGGAUACCAGCACUCGUUGAGUGAUGUUCACGGUGUGGUAUUCAACGGGCUGCCCUUGGCAGCCGUGCGUACGGC
3. AAGGACGGGACUUCCUCGCCGGAUAGAGAUACCAGCCCAGCAAUGGGCCCUUGGCAGCUCACUGACCUCAGUGAUGUUGAGGUUC [Arange]
4. ACGACGCAUAGUGAUACCAGCACAAUAUGAGUGAUGUUCAACAUAUAAAUGUAAUAAUUAUGCCCUUGGCAGCACUAUGCGUCAG [KL-SSTheoB1]

135
134
240
793
